- system-under-test: PIP4K2C (Homo sapiens, UniProt Q8TBX8)
- Sequence (Q8TBX8 1-421): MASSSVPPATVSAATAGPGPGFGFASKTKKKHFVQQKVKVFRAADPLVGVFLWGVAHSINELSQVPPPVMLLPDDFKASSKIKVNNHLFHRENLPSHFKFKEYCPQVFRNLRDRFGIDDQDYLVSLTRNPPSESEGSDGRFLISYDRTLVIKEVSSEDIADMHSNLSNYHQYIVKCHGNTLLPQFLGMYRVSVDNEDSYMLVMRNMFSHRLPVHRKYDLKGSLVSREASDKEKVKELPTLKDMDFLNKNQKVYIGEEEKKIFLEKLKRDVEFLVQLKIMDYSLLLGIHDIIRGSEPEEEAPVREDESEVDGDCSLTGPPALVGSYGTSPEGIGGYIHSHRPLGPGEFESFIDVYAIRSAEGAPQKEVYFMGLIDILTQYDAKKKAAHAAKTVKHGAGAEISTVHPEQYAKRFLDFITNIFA
- protocol-summary: Enzyme Binding Assay (KINOMEscan): active site-directed competition binding to an immobilized ligand
- test-settings: 11-point dose response, duplicate, top concentration 5 micromolar; read-out: Pip4k2c Kd: IC50
- Protocol: Example B-1: Enzyme Binding Assays (KINOMEscan) PIP4K2C binding constants disclosed herein were determined using the proprietary Human PIP4K2C binding assay (Catalog number 87-0007-1094, Eurofins DiscoverX, San Diego, CA). This assay measures active site-directed competition binding to an immobilized ligand (see https://doi.org/10.1038/nbt1068, herein incorporated by reference in its entirety). […]
// reported IC50 for each item listed

Please review the entries below; each comes with its answer.
CNC(=O)[C@H]1CC[C@H](Nc2ncc(Cl)c(-c3cccc(-c4cccc(=O)[nH]4)c3)n2)CC1 [Compound 92]: < 500 nM
CC(=O)N[C@H]1CC[C@H](Nc2ncc(F)c(-c3cccc(C4CCCN(C(C)=O)C4)c3)n2)CC1 (stereo partly drawn) [Compound 174]: < 500 nM

Pending molecule:
Form: Entry = CC(=O)N1CCC(Nc2ncc(F)c(-c3ccnc(C(C)(C)O)c3)n2)CC1 [Compound 172] | System = PIP4K2C (Homo sapiens, UniProt Q8TBX8) | IC50 = ____
< 500 nM

Values were extracted from patent US20260355196A1.
